- Tested on: tobacco budworm (Heliothis virescens [Fabricius])
- ASSAY_EXPLANATION: surface-treated diet test against the tobacco budworm
- Assay type: in vivo
- MEASUREMENT_SETUP: tobacco budworm second instar larvae; surface-treated diet; 0.25 millimoles of candidate insecticide on the surface of the diet; five-day exposure; compared to total number of insects infested
ATTRIBUTE_MEASURED: Percent Mortality (%)
Only the number, expressed in %, is required.

Dear colleague, I am looking for the recorded Percent Mortality of the following compound: CCCOc1ccc(CN2CCC(C(OC(=O)Nc3ccc(Cl)cc3)c3ccc(F)cc3)CC2)cc1 (stereo not drawn) 100

Dear colleague, I am looking for the recorded Percent Mortality of the following compound: CCCOc1ccc(CN2CCC(C(OC(=O)Nc3cc(F)cc(F)c3)c3cccc(C(F)(F)F)c3)CC2)cc1 (stereo not drawn) 100

Dear colleague, I am looking for the recorded Percent Mortality of the following compound: CCON=Cc1ccc(CN2CCC(C(OC(=O)Nc3cccc(F)c3)c3ccc(C(F)(F)F)cc3)CC2)cc1 (stereo not drawn) 100

---

- Test system: tobacco budworm (Heliothis virescens [Fabricius])
- ASSAY_EXPLANATION: surface-treated diet test against the tobacco budworm
- Type: in vivo
- MEASUREMENT_SETUP: tobacco budworm second instar larvae; surface-treated diet; 0.25 millimoles of candidate insecticide on the surface of the diet; five-day exposure; compared to total number of insects infested
ATTRIBUTE_MEASURED: Percent Mortality (%)
Only the number, expressed in %, is required.

Past entries and their recorded results:
O=C(Nc1cc(Cl)ccc1Cl)OC(c1ccc(C(F)(F)F)cc1)C1CCN(Cc2ccc(Oc3ccccn3)cc2)CC1 (stereo not shown)
100
CCCOc1ccc(CN2CCC(C(OC(=O)Nc3cccc(C(F)(F)F)c3)c3cccc(C(F)(F)F)c3)CC2)cc1 (stereo not shown)
100
O=C(NS(=O)(=O)c1ccc(Cl)cc1)OC(c1ccc(C(F)(F)F)cc1)C1CCN(Cc2ccc(Oc3ccccn3)cc2)CC1 (stereo not shown)
0

Now for another entry.
Dear colleague, I am looking for the recorded Percent Mortality of the following compound: [O-][N+]1(Cc2ccc(Oc3ccc(Cl)cn3)cc2)CCC(=C(c2ccc(C(F)(F)F)cc2)c2ccc(C(F)(F)F)cc2)CC1 (stereo not shown) 100

---

- Test system: tobacco budworm (Heliothis virescens [Fabricius])
- ASSAY_EXPLANATION: surface-treated diet test against the tobacco budworm
- Type: in vivo
- MEASUREMENT_SETUP: tobacco budworm second instar larvae; surface-treated diet; 0.25 millimoles of candidate insecticide on the surface of the diet; five-day exposure; compared to total number of insects infested
ATTRIBUTE_MEASURED: Percent Mortality (%)
Only the number, expressed in %, is required.

Past entries and their recorded results:
CCCOc1ccc(CN2CCC(=C(c3ccc(O)cc3)c3ccc(O)cc3)CC2)cc1
67
CCn1nnc(-c2ccc(CN3CCC(C(OC(=O)Nc4cccc(C(F)(F)F)c4)c4ccc(C)cc4)CC3)cc2)n1 (stereo not shown)
100
O=C(Nc1ccc(Cl)cc1)OC(c1ccc(C(F)(F)F)cc1)C1CCN(Cc2ccc(-c3ccccn3)cc2)CC1 (stereo not shown)
100
O=C(Nc1ccc(C(F)(F)F)cc1)OC(c1ccc(F)cc1)C1CCN(Cc2ccc(Oc3ccccn3)cc2)CC1 (stereo not shown)
100
O=C(Nc1cc(F)cc(F)c1)OC(c1ccc(C(F)(F)F)cc1)C1CCN(Cc2ccc(-c3ccccc3)cc2)CC1 (stereo not shown)
100

Now for another entry.
Dear colleague, I am looking for the recorded Percent Mortality of the following molecule: O=C(Nc1ccc(Cl)cc1)OC(c1ccc(C(F)(F)F)cc1)C1CCN(Cc2ccc(Oc3ccccn3)cc2)CC1 (stereo not shown) [Compound 665] 0
